tested on: Serratia marcescens; assay: Antibacterial activity carried out in vitro against Serratia marcescens MOR 84-41; assay type: functional
// returns criterion not met unless MIC is strictly below 1 µg/mL, in which case criterion met

Prompt: Please indicate whether the reported MIC of CCn1cc(C(=O)O)c(=O)c2cc(F)c(N3CCN(C)CC3)c(F)c21 is strictly below 1 µg/mL.
Response: criterion met

Prompt: State whether 1 µg/mL exceeds MIC recorded for CCn1cc(C(=O)O)c(=O)c2c(F)c(F)c(N3CCCC3)c(F)c21 .
Response: criterion met

Prompt: Confirm or reject: MIC of CN1CCN(c2c(F)c(F)c3c(=O)c(C(=O)O)cn(C4CC4)c3c2F)CC1 lies strictly below 1 µg/mL
Response: criterion met

Prompt: Does CCn1cc(C(=O)O)c(=O)c2c(N3CCCC3)c(F)c(N3CCCC3)c(F)c21 have MIC strictly under 1 µg/mL?
Response: criterion not met

Prompt: Does this compound meet the criterion MIC < 1 µg/mL? CN1CCN(c2c(F)c(F)c3c(=O)c(C(=O)O)cn(-c4ccc(F)cc4)c3c2F)CC1
Response: criterion not met

Prompt: A record lists CC(C)n1cc(C(=O)O)c(=O)c2c(F)c(F)c(N3CCN(C)CC3)c(F)c21 . Is its MIC below 1 µg/mL?
Response: criterion not met

---

test system: Pseudomonas aeruginosa; assay: Antibacterial activity carried out in vitro against Pseudomonas aeruginosa K84-16; assay type: functional
measure: MIC (µg/mL)
Note: unit µg/mL is implicit; provide only the numeric part.

INSERT INTO assay_data (compound, result) VALUES
  ('CCn1cc(C(=O)O)c(=O)c2c(F)c(F)c(N3CCOCC3)c(F)c21', 64),
  ('CCn1cc(C(=O)O)c(=O)c2cc(F)c(N3CCN(C)CC3)c(F)c21', 4),
  ('CN1CCN(c2c(F)c(F)c3c(=O)c(C(=O)O)cn(C4CC4)c3c2F)CC1', 4),
  ('CCn1cc(C(=O)O)c(=O)c2c(F)c(F)c(N3CCSCC3)c(F)c21', 64),
  ('CCn1cc(C(=O)O)c(=O)c2cc(F)c(N3CCN(C)CC3)cc21 [PEFLOXACIN]', 4),
  ('CCn1cc(C(=O)O)c(=O)c2c(F)c(F)c(N3CCN(C)CC3)c(F)c21', 32);

Okay, next one:
Prompt: Consider the compound CN1CCN(c2c(F)c(F)c3c(=O)c(C(=O)O)cn(-c4ccc(F)cc4)c3c2F)CC1 and give its measured MIC.
Response: 32

---

test system: Klebsiella pneumoniae; assay: Antibacterial activity carried out in vitro against Klebsiella pneumoniae CMC 84-31; type: functional
measure: MIC (µg/mL)
Write the number in µg/mL without appending the unit.

Take a look at these entries with their results.
INSERT INTO measurements (structure, result) VALUES
  ('CN1CCN(c2c(F)c(F)c3c(=O)c(C(=O)O)cn(-c4ccc(F)cc4)c3c2F)CC1', 2),
  ('CCn1cc(C(=O)O)c(=O)c2c(F)c(F)c(N3CCOCC3)c(F)c21', 4),
  ('CCn1cc(C(=O)O)c(=O)c2c(F)c(F)c(N3CCN(C)CC3)c(F)c21', 0.5),
  ('CC(C)n1cc(C(=O)O)c(=O)c2c(F)c(F)c(N3CCN(C)CC3)c(F)c21', 8),
  ('CN1CCN(c2c(F)c(F)c3c(=O)c(C(=O)O)cn(C4CC4)c3c2F)CC1', 0.06),
  ('CCn1cc(C(=O)O)c(=O)c2cc(F)c(N3CCN(C)CC3)cc21', 0.25),
  ('CCn1cc(C(=O)O)c(=O)c2cc(F)c(N3CCN(C)CC3)c(F)c21', 0.25),
  ('CCn1cc(C(=O)O)c(=O)c2c(F)c(F)c(N3CCSCC3)c(F)c21', 8);

Prompt: Could you share which MIC value was measured for O=C(O)c1cn(C2CC2)c2cc(N3CCNCC3)c(F)cc2c1=O ?
Response: 0.03
